METHOD: Litter parameters at necropsy (implantation sites, resorptions, viable and nonviable embryos)
Format: in vivo, mouse (CD-1)
PARTICULARS: female, CD-1, mouse, in vivo, oral, 2 mg/kg/d, percent of implantation sites; E11.5
OBSERVATION_TYPE: viability

[[record]]
compound = "N.O=C(O)C(F)(OC(F)(F)C(F)(F)C(F)(F)F)C(F)(F)F (stereo not shown) [GenX]"
observation_type = "viability"
data_value = "95%"


---

METHOD: Litter parameters at necropsy (implantation sites, resorptions, viable and nonviable embryos)
Format: in vivo, mouse (CD-1)
PARTICULARS: female, CD-1, mouse, in vivo, oral, 1 mg/kg/d, percent of implantation sites; E11.5
OBSERVATION_TYPE: viability (%)

[[record]]
compound = "O=C(O)C(F)(F)C(F)(F)C(F)(F)C(F)(F)C(F)(F)C(F)(F)C(F)(F)F [PFOA, Perfluorooctanoic acid]"
data_value = 96


---

METHOD: Litter parameters at necropsy (implantation sites, resorptions, viable and nonviable embryos)
Type: in vivo, mouse (CD-1)
PARTICULARS: female, CD-1, mouse, in vivo, oral, 10 mg/kg/d, percent of implantation sites; E11.5
OBSERVATION_TYPE: viability (%)

[[record]]
compound = "N.O=C(O)C(F)(OC(F)(F)C(F)(F)C(F)(F)F)C(F)(F)F (stereo not shown)"
observation_type = "viability"
data_value = 92.4


---

METHOD: Litter parameters at necropsy (implantation sites, resorptions, viable and nonviable embryos)
Type: in vivo, mouse (CD-1)
PARTICULARS: female, CD-1, mouse, in vivo, oral, 5 mg/kg/d, percent of implantation sites; E17.5
OBSERVATION_TYPE: viability (%)

[[record]]
smiles_notation = "O=C(O)C(F)(F)C(F)(F)C(F)(F)C(F)(F)C(F)(F)C(F)(F)C(F)(F)F"
unit_info = "%"
data_value = 97.7


---

METHOD: Litter parameters at necropsy (implantation sites, resorptions, viable and nonviable embryos)
Type: in vivo, mouse (CD-1)
PARTICULARS: female, CD-1, mouse, in vivo, oral, 10 mg/kg/d, percent of implantation sites; E17.5
OBSERVATION_TYPE: viability (%)

[[record]]
compound = "N.O=C(O)C(F)(OC(F)(F)C(F)(F)C(F)(F)F)C(F)(F)F (stereo not shown)"
observation_type = "viability"
unit_info = "%"
data_value = 96.5


---

METHOD: Litter parameters at necropsy (implantation sites, resorptions, viable and nonviable embryos)
Format: in vivo, mouse (CD-1)
PARTICULARS: female, CD-1, mouse, in vivo, oral, 1 mg/kg/d, percent of implantation sites; E17.5
OBSERVATION_TYPE: viability

[[record]]
compound = "O=C(O)C(F)(F)C(F)(F)C(F)(F)C(F)(F)C(F)(F)C(F)(F)C(F)(F)F [PFOA, Perfluorooctanoic acid]"
observation_type = "viability"
data_value = "96.8%"

